# experiment.description: Oral bioavailability in Sprague-Dawley rat at 100 mg/kg
# Assay type: ADME, organism-based
# run.conditions: in vivo
assay.metric: bioavailability

Lookup: # input molecule: O=C(O[C@@H]1Cc2c(O)cc(O)cc2O[C@@H]1c1cc(O)c(O)c(O)c1)c1cc(O)c(O)c(O)c1 [EPIGALOCATECHIN GALLATE] ; wanted: its bioavailability
Found: ≤ 5%

---

# subject.of.test: Dual specificity tyrosine-phosphorylation-regulated kinase 1A (Homo sapiens)
Kindly state pIC50 for each of the entries shown.
Answers are plain numbers, as −log10 of the molar value.

// worked examples, pIC50 included
Lookup: What pIC50 appears in the records for this compound with Dual specificity tyrosine-phosphorylation-regulated kinase 1A (Homo sapiens)? O=C(O[C@@H]1Cc2c(O)cc(O)cc2O[C@H]1c1ccc(O)c(O)c1)c1cc(O)c(O)c(O)c1 [(-)-CATECHINGALLATE]
Found: 6.66

Lookup: What pIC50 appears in the records for this compound with Dual specificity tyrosine-phosphorylation-regulated kinase 1A (Homo sapiens)? O=C(O[C@@H]1Cc2c(O)cc(O)cc2O[C@H]1c1cc(O)c(O)c(O)c1)c1cc(O)c(O)cc1O
Found: 6.76

Lookup: What pIC50 appears in the records for this compound with Dual specificity tyrosine-phosphorylation-regulated kinase 1A (Homo sapiens)? O=C(O[C@@H]1Cc2c(O)cc(O)cc2O[C@@H]1c1cc(O)c(O)c(O)c1)c1cc(O)c(O)c(O)c1 [EPIGALOCATECHIN GALLATE]
Found: 6.63

Lookup: What pIC50 appears in the records for this compound with Dual specificity tyrosine-phosphorylation-regulated kinase 1A (Homo sapiens)? Cc1c([C@@H]2Oc3cc(O)cc(O)c3C[C@H]2OC(=O)c2cc(O)c(O)c(O)c2)cc(O)c(O)c1O
Found: 6.53

Lookup: What pIC50 appears in the records for this compound with Dual specificity tyrosine-phosphorylation-regulated kinase 1A (Homo sapiens)? O=C(O[C@@H]1Cc2c(O)cc(O)cc2O[C@H]1c1cc(O)c(O)c(O)c1)c1cc(O)c(O)cc1C(F)(F)F
Found: 6.36

I have 4 compounds here; please give me pIC50 for each one.
1. O=C(O[C@@H]1Cc2c(O)cc(O)cc2O[C@@H]1c1ccc(O)c(O)c1)c1cc(O)c(O)c(O)c1 [EPICATECHIN GALLATE]
2. O=C(O[C@@H]1Cc2c(O)cccc2O[C@H]1c1cc(O)c(O)c(O)c1)c1cc(O)c(O)c(O)c1 (racemic)
3. COc1c(O)cc([C@@H]2Oc3cc(O)cc(O)c3C[C@H]2OC(=O)c2cc(O)c(O)c(O)c2)cc1O
4. O=C(O[C@@H]1Cc2c(O)cc(O)cc2O[C@H]1c1cc(O)c(O)c(O)c1)c1cc(O)c(O)c(O)c1F

Found:
6.28
6.67
5.24
7.46
